system: MCF7; test: Cytotoxicity against human MCF7 cells after 96 hrs by microtiter assay; type: functional, cell-based; details: MCF7, 96 h
Binary label based on IC50 with cut-off 6 µM: below gives fulfilled, not below gives not fulfilled.

{"compound": "N#C/C(=C\\c1ccccn1)c1nc2ccccc2[nH]1", "study-system": "MCF7", "assigned-label": "not fulfilled"}
{"compound": "N#C/C(=C\\c1ccc([N+](=O)[O-])o1)c1nc2ccccc2s1", "study-system": "MCF7", "assigned-label": "fulfilled"}
{"compound": "S=P(N1CC1)(N1CC1)N1CC1", "study-system": "MCF7", "assigned-label": "fulfilled"}
{"compound": "N#C/C(=C\\c1ccc([N+](=O)[O-])s1)c1nc2ccccc2o1", "study-system": "MCF7", "assigned-label": "fulfilled"}
{"compound": "Cc1cc2nc(/C(C#N)=C/c3ccc([N+](=O)[O-])s3)[nH]c2cc1C", "study-system": "MCF7", "assigned-label": "fulfilled"}
{"compound": "N#C/C(=C\\c1ccc([N+](=O)[O-])s1)c1nc2ccccc2s1", "study-system": "MCF7", "assigned-label": "fulfilled"}
{"compound": "COc1ccc(/C=C(\\C#N)c2nc3ccccc3[nH]2)s1", "study-system": "MCF7", "assigned-label": "not fulfilled"}
{"compound": "N#C/C(=C\\c1cccc([N+](=O)[O-])c1)n1cnc2ccccc21", "study-system": "MCF7", "assigned-label": "fulfilled"}
{"compound": "N#C/C(=C\\c1ccncc1)c1nc2ccccc2[nH]1", "study-system": "MCF7", "assigned-label": "not fulfilled"}
{"compound": "N#C/C(=C\\c1ccc([N+](=O)[O-])o1)c1nc2cccnc2[nH]1", "study-system": "MCF7", "assigned-label": "fulfilled"}
{"compound": "O=C(Cn1cnc2ccccc21)NC(O)c1ccc([N+](=O)[O-])s1 (stereo unspecified)", "study-system": "MCF7", "assigned-label": "not fulfilled"}
